- assay_details: Bioassay: distribution of I-123-labeled compounds in organs of rats after tail vein injection (percent dose/gram, brain/blood ratio)
- Format: in vivo, Female Sprague-Dawley rats
- protocol_conditions: rat, iv, brain, 5 minutes post-injection, 0.05 to 1.0 mCi, two rats, read-out: Percent Dose/Gram Brain 5 min.
readout_type: tissue uptake at 5 min (%ID/g)
API: value field is a number in %ID/g; no unit string.

Entry CC(C)NCc1ccccc1[123I] [I--123-N--isopropyl-o-iodobenzylamine, I-123-N-isopropyl-o-iodobenzylamine] , tissue uptake at 5 min reported as 1.21

Per the record, CNCCc1ccccc1[123I] [I--123-N--methyl-o-iodo-β-phenethylamine] has tissue uptake at 5 min of 0.57

// tissue uptake at 5 min lookup, compound = CCCNCCc1ccccc1[123I] [I--123-N--propyl-o-iodo-β-phenethylamine] , result: 1.17

Reported tissue uptake at 5 min of "[123I]c1ccccc1CCN(CCc1ccccc1)CCc1ccccc1" : 0.2

Just so you know, measured tissue uptake at 5 min for "CC(C)N(CCc1ccccc1)CCc1ccccc1[123I]" came out at 0.53

// sample "[123I]c1ccccc1CN(CCc1ccccc1)CCc1ccccc1" , its tissue uptake at 5 min was 1.06

Given item CC(C)N[C@@H](C)Cc1ccc([123I])cc1 [I--123-S--N--isopropyl-p-iodoamphetamine, I-123-S-N-isopropyl-p-iodoamphetamine] , the value recorded as its tissue uptake at 5 min is 1.32

Noted for NC(=O)C(Nc1ccc([123I])cc1)c1ccccc1 (stereo not drawn) [I--123-α-(p-iodoanilino)phenylacetamide] : its tissue uptake at 5 min reads 0.92

Looking up [123I]c1ccccc1CN1CCCCC1 [I--123-N--o-iodobenzylpiperidine] , I see its tissue uptake at 5 min listed as 0.93
